- SYSTEM NAME: T1, Rat ASGR-1 (rat, UniProt P02706 1-284)
- T1 construct: Expressed on HEK 293 cells or as membrane prep on beads; cDNA GenBank NM_012503
- T1 sequence: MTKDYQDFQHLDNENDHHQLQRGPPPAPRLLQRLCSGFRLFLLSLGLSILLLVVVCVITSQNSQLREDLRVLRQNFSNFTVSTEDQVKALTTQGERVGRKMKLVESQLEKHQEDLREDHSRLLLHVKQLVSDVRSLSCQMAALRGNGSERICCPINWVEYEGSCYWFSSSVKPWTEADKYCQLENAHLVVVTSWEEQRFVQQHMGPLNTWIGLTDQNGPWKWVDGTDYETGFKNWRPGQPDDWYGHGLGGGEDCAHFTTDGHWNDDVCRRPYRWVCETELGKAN
- EXPERIMENTAL PROTOCOL: FACS on transfected HEK 293 cells or membrane preps on beads; Y = signal at least 2x irrelevant IgG
REPORTED METRIC: binding result

>  <BINDER>
72G9 (antibody, V domains shown, Tested as hybridoma supernatant at normalized concentration) VH: EVQLVESGGGLVKPGGSLRLSCAASGFTFSSYSMNWVRQAPGKGLEWVSSISGSSSYIYYADSVKGRFTISRDNAKNSLYLQMNSLRAEDTAVYFCARGGSRGFDPWGQGTLVTVSS VL: DIQMTQSPSSLSASVGDRVTITCRASQSITSYLNWYQQKPGKAPKLLIYTASSLQSGVPSRFSGSGSGTDFTLTISSLQPEDFATYYCQQSHSFPFTFGPGTKVDIK

>  <OBSERVED>
binds

$$$$
>  <BINDER>
198D2 (antibody, V domains shown, Tested as hybridoma supernatant at normalized concentration) VH: QVQLVESGGGVVQPGRSLRLSCAASGFTFRSYGMHWVRQAPGKGLEWVAVIIYDGSYKYYADSVKGRFTISRDNSKNTLYLQMNSLRAEDTAVYYCARTYSGGMDVWGQGTTVTVSS VL: QSVLTQPPSVSAAPGQKVTISCSGSSSNIGSNYVSWYQQLPGTAPKVLIYDNNKRPSGIPDRFSGSKSGTSATLGITGLQTGDEADYYCGTWDSRLNVGVFGGGTKLTVL

>  <OBSERVED>
binds

$$$$
>  <BINDER>
184E7 (antibody, V domains shown, Tested as hybridoma supernatant at normalized concentration) VH: QVQLVQSGAEVKTPGASVKVSCRASGYTFTSYNMHWVRQVPGQGLEWMGWINPNNGGSNYTQKFQGRVTMTRDTSISTAYMELSRLRSDDTAVYYCARKFGDWGQGTLVTVSS VL: DIQMTQSPSSRSASIGERVTITCRASQGISNYLAWIQQKPGTAPKSLIYAASSLQSGVSSRFSGSGFGTDFTITISSVQREDFATYYCQQYNGYPFTFGHGTKVDIK

>  <OBSERVED>
binds

$$$$
